target: cell-surface VLA-4 (α4β1 integrin) on Ramos cells binding to immobilized VCAM-1 (Homo sapiens, UniProt P05556+P13612); construct: Ramos cells bearing cell-surface VLA-4; endogenous in cells; VCAM-1 partner made in CHO cells; assay: Ramos (VLA-4)/VCAM-1 Cell-Based Screening Assay (cell adhesion); conditions: Calcein-AM labeled Ramos cells, VCAM-1 coated plates
Sequence (P13612 34-1032): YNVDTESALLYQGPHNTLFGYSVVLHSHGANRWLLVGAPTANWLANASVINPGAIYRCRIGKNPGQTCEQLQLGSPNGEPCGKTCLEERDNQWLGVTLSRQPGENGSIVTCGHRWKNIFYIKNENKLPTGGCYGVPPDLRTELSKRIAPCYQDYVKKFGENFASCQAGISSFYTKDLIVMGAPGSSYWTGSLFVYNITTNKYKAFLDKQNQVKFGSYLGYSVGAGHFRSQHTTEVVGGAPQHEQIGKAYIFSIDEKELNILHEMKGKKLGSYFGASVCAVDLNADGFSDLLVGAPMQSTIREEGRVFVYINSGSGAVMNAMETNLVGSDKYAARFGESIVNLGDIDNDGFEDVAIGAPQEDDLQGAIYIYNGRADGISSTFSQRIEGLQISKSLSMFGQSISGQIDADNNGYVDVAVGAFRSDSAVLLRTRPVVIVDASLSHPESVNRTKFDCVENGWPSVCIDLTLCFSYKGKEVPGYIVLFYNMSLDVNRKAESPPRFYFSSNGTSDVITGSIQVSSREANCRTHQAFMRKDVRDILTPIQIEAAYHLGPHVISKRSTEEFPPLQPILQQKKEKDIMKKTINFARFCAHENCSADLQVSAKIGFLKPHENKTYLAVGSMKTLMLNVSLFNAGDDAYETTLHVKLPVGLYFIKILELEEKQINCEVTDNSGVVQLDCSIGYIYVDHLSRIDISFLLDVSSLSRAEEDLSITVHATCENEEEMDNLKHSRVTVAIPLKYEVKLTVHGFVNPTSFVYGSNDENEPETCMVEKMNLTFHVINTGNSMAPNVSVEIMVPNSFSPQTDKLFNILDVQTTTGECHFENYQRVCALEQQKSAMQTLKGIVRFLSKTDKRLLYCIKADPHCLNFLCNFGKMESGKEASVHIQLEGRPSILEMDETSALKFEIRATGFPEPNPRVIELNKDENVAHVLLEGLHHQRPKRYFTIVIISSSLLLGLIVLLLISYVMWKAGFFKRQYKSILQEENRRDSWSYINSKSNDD
Sequence (P05556 21-798): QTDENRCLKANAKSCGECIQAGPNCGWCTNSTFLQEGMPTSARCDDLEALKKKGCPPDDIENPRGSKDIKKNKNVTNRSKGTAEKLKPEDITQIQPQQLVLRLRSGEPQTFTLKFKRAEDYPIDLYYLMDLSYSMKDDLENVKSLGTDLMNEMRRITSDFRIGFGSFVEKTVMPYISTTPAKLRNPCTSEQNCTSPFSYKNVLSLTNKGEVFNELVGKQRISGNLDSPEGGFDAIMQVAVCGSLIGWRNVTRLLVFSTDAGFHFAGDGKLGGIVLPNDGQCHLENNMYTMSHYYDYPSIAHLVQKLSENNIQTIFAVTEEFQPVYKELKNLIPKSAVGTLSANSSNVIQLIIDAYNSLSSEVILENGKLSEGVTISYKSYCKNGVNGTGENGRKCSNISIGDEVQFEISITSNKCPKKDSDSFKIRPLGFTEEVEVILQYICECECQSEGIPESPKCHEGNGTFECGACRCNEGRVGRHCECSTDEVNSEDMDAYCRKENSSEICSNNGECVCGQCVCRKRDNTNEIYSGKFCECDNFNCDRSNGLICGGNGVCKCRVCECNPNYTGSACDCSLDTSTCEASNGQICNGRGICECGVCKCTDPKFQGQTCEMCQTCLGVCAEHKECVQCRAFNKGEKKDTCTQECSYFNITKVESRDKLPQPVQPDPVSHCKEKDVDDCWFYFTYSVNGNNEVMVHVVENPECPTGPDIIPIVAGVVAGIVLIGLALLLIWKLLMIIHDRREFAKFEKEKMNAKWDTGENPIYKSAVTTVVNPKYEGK
pIC50: −log10 of the molar value.
Measured Quantity: pIC50

Request: Please look up its pIC50: COc1ccc(Br)c(C(=O)N[C@@H](Cc2ccc(-c3cc(Br)cn(C)c3=O)cc2)C(=O)O)c1 [Example 28]
Response: > 5.30

Request: pIC50 for Cc1cccc(Cl)c1C(=O)N[C@@H](Cc1ccc(-c2cc(Cl)cn(C)c2=O)cc1)C(=O)O [Example 8] ?
Response: > 5.00

Request: May I ask what pIC50 has been recorded for Cc1cccc(Cl)c1C(=O)N[C@@H](Cc1ccc(-c2cc(Cl)cn(Cc3ccccc3)c2=O)cc1)C(=O)O [Example 15] ?
Response: > 5.30

Request: Please give the measured pIC50 for this molecule: COCCC1(C(=O)N[C@@H](Cc2ccc(-c3cc(Cl)cn(C)c3=O)cc2)C(=O)O)CCCC1 [Example 10]
Response: > 5.00

Request: Data request, read-out pIC50, for CCc1cccc(C)c1C(=O)N[C@@H](Cc1ccc(-c2c(C(F)(F)F)cc(C)n(C)c2=O)cc1)C(=O)O [Example 34]
Response: > 5.00

Request: May I ask what pIC50 has been recorded for COCCC1(C(=O)N[C@@H](Cc2ccc(-c3c(C(F)(F)F)cc(C)n(C)c3=O)cc2)C(=O)O)CCCC1 [Example 37] ?
Response: > 5.00

Request: Record request: pIC50 value, item COc1ccc(Br)c(C(=O)N[C@@H](Cc2ccc(-c3cccn(C)c3=O)cc2)C(=O)O)c1 [Example 24]
Response: > 5.00

Request: Item under review: Cc1cc(C(F)(F)F)c(-c2ccc(C[C@H](NC(=O)c3c(Cl)cccc3Cl)C(=O)O)cc2)c(=O)n1C [Example 33] . Reported pIC50?
Response: > 7.00

Request: pIC50 for Cc1cccc(Cl)c1C(=O)N[C@@H](Cc1ccc(-c2c(C)ccn(C)c2=O)cc1)C(=O)O [Example 32] ?
Response: > 5.00

Request: Please give the measured pIC50 for this molecule: Cc1ccn(C)c(=O)c1-c1ccc(C[C@H](NC(=O)c2c(Cl)cccc2Cl)C(=O)O)cc1 [Example 31]
Response: > 5.00

Request: Would you mind telling me what pIC50 value was observed for Cc1cccc(C(C)C)c1C(=O)N[C@@H](Cc1ccc(-c2c(C(F)(F)F)cc(C)n(C)c2=O)cc1)C(=O)O [Example 35] ?
Response: > 5.00

Request: Could you share which pIC50 value was measured for Cc1cccc(Cl)c1C(=O)N[C@@H](Cc1ccc(-c2c(C(F)(F)F)cc(C)n(C)c2=O)cc1)C(=O)O [Example 36] ?
Response: > 7.00

Request: GET /values?readout=pIC50&item= Cc1cccc(Cl)c1C(=O)N[C@@H](Cc1ccc(-c2cccn(C)c2=O)cc1)C(=O)O [Example 30]
Response: > 5.00
